Exercise: state measured MIC for each of the molecules provided.
- System: Pseudomonas aeruginosa
- assayExplanation: Antibacterial activity against Pseudomonas aeruginosa ATCC 27853 by microtiter-tube dilution method
- Assay type: functional

CC1(C)[C@@H](O[C@@H]2OC[C@H](O[C@@H]3O[C@H](CO[C@@H]4O[C@H](CO)[C@@H](O)[C@H](O)[C@H]4O)[C@@H](O)[C@H](O)[C@H]3O[C@@H]3OC[C@H](O)[C@H](O)[C@H]3O)[C@H](O)[C@H]2O[C@@H]2O[C@H](CO)[C@@H](O)[C@H](O)[C@H]2O)CC[C@]2(C)[C@H]3CC=C4[C@@H]5C[C@]6(C)CC[C@]5(COC6=O)[C@H](O)C[C@@]4(C)[C@]3(C)CC[C@@H]12 : > 400 µg/mL

# context switch: different molecule, same MIC
IN: Reported MIC, molecule CC1(C)[C@@H](O[C@@H]2OC[C@H](O[C@@H]3O[C@H](CO[C@@H]4O[C@H](CO)[C@@H](O)[C@H](O)[C@H]4O)[C@@H](O)[C@H](O)[C@H]3O[C@@H]3OC[C@H](O)[C@H](O)[C@H]3O)[C@H](O)[C@H]2O[C@@H]2O[C@H](CO)[C@@H](O)[C@H](O)[C@H]2O)CC[C@]2(C)[C@H]3CC[C@]45OC[C@@]6(CC[C@](C)(C=O)C[C@H]64)[C@H](O)C[C@@]5(C)[C@]3(C)CC[C@@H]12 : ____
OUT: > 400 µg/mL
